# System: Fibroblast
# Assay Details: Multiplex assay against human fibroblast
# Assay type: toxicity, cell-based
# Conditions Used: 12 h, 10 µM, compound concentration 10 uM, replicate 2
Classify: y when Population Hoechst High Intensity Objects (%) is strictly less than 10%; n when Population Hoechst High Intensity Objects (%) is not.

>  <Compound>
CCc1ccc(OCc2ccccc2C(=O)Nc2ccc3nc(C)cc(N)c3c2)cc1.Cl

>  <Study System>
Fibroblast

>  <Assigned Class>
n

$$$$
>  <Compound>
C=CC(=O)Nc1cccc(Oc2nc(Nc3ccc(N4CCN(C)CC4)cc3OC)ncc2Cl)c1

>  <Study System>
Fibroblast

>  <Assigned Class>
n

$$$$
>  <Compound>
Cl.O=C(O)c1cc(-c2ccc(C3CCNCC3)cc2)c2ccc(-c3ccc(C(F)(F)F)cc3)cc2c1

>  <Study System>
Fibroblast

>  <Assigned Class>
n

$$$$
>  <Compound>
COc1ccc(-c2ccc3ncc4c(c3c2)n(-c2ccc(N3CCNCC3)c(C(F)(F)F)c2)c(=O)n4C)cn1.O=C(O)/C=C\C(=O)O

>  <Study System>
Fibroblast

>  <Assigned Class>
n

$$$$
>  <Compound>
Cc1ccc2c(c1)c1c(n2CCc2ccc(C)nc2)CCN(C)C1 [LATREPIRDINE]

>  <Study System>
Fibroblast

>  <Assigned Class>
y

$$$$
>  <Compound>
C=CC(=O)Nc1ccc2[nH]c(=O)n(C3CCN(Cc4ccc(-c5nc6cc[nH]c(=O)c6cc5-c5ccccc5)cc4)CC3)c2c1

>  <Study System>
Fibroblast

>  <Assigned Class>
n

$$$$
>  <Compound>
CC(C)CC(=O)Nc1[nH]nc2c1CN(C(=O)C1CCN(C)CC1)C2(C)C

>  <Study System>
Fibroblast

>  <Assigned Class>
n

$$$$
>  <Compound>
Cc1cccc(CN2CCN(C(c3ccccc3)c3ccc(Cl)cc3)CC2)c1.Cl.Cl (configuration not stated)

>  <Study System>
Fibroblast

>  <Assigned Class>
y

$$$$
>  <Compound>
CCCSc1nc(N[C@@H]2C[C@H]2c2ccc(F)c(F)c2)c2nnn([C@@H]3C[C@H](OCCO)[C@@H](O)[C@H]3O)c2n1

>  <Study System>
Fibroblast

>  <Assigned Class>
n

$$$$
>  <Compound>
CN1CCN(Cc2ccc(Nc3ncc(Cl)c(Nc4ccccc4S(=O)(=O)N(C)C)n3)cc2)CC1

>  <Study System>
Fibroblast

>  <Assigned Class>
y

$$$$
>  <Compound>
C=CC(=O)Nc1cccc(Sc2nc(Nc3ccc(N4CCN(C)CC4)cc3)ncc2Cl)c1

>  <Study System>
Fibroblast

>  <Assigned Class>
n

$$$$
>  <Compound>
CC(C)(C)NC[C@H](O)COc1nsnc1N1CCOCC1

>  <Study System>
Fibroblast

>  <Assigned Class>
y

$$$$

====

Entries and their Population Normal (%)
# Tested on: U2OS
# Assay Details: Multiplex assay against U2OS
# Type: toxicity, cell-based
# Conditions Used: human, 48 h, 10 µM, compound concentration 10 uM, replicate 2

>  <Molecule>
CC1=C(C(=O)Nc2cc3cn[nH]c3cc2F)C(c2ccc(C(F)(F)F)cc2)CC(=O)N1 (stereo not given)

>  <Unit Of Measure>
%

>  <Population Normal (%)>
96

$$$$
>  <Molecule>
COc1ccccc1CN[C@H]1C2CCN(CC2)[C@H]1C(c1ccccc1)c1ccccc1

>  <Unit Of Measure>
%

>  <Population Normal (%)>
98

$$$$
>  <Molecule>
CCc1nn(CCCN2CCN(c3cccc(Cl)c3)CC2)c(=O)n1CCOc1ccccc1.Cl [NEFAZODONE HYDROCHLORIDE]

>  <Unit Of Measure>
%

>  <Population Normal (%)>
91

$$$$
>  <Molecule>
COc1cc2ncn(-c3cc(OCc4ccccc4C(F)(F)F)c(C(N)=O)s3)c2cc1OC [GW843682X]

>  <Unit Of Measure>
%

>  <Population Normal (%)>
93

$$$$
>  <Molecule>
CC(C)OC(=O)N1CCC(Oc2ncnc3c2cnn3-c2ccc(S(C)(=O)=O)cc2F)CC1

>  <Unit Of Measure>
%

>  <Population Normal (%)>
98

$$$$

====

# Test system: Fibroblast
# Assay Details: Incucyte cell viability with human fibroblast; also: filed as whole numbers so only -1 and 0 and 1 occur
# Format: toxicity, cell-based
# Conditions Used: 12 h, 10 µM, compound concentration 10 uM, replicate number 1, timepoint 12 hours
Measured Parameter: Growth Rate

>  <Compound>
CCc1ccc(OCc2ccccc2C(=O)Nc2ccc3nc(C)cc(N)c3c2)cc1.Cl

>  <Measured Parameter>
Growth Rate

>  <Result Number>
0

$$$$
>  <Compound>
Cc1noc([C@H]2C[C@@H](c3ccc(C(F)(F)F)cc3)CN(C(=O)N3CCS(=O)(=O)C3)C2)n1 [BAY-448]

>  <Measured Parameter>
Growth Rate

>  <Result Number>
1

$$$$
>  <Compound>
Cc1cc(-n2nc(Cc3cc(F)cc(C(F)(F)F)c3)nc2C)ccc1C(N)=O [TP-024]

>  <Measured Parameter>
Growth Rate

>  <Result Number>
1

$$$$
>  <Compound>
O=C(O)C1CN(Cc2ccc(-c3nc4cc(Cc5ccccc5F)ccc4s3)c(F)c2)C1

>  <Measured Parameter>
Growth Rate

>  <Result Number>
1

$$$$
>  <Compound>
CN1CCN(Cc2ccc(Nc3ncc(Cl)c(Nc4ccccc4S(=O)(=O)N(C)C)n3)cc2)CC1 [DUBERMATINIB]

>  <Measured Parameter>
Growth Rate

>  <Result Number>
1

$$$$
>  <Compound>
CCCSc1nc(N[C@@H]2C[C@H]2c2ccc(F)c(F)c2)c2nnn([C@@H]3C[C@H](OCCO)[C@@H](O)[C@H]3O)c2n1 [TICAGRELOR]

>  <Measured Parameter>
Growth Rate

>  <Result Number>
0

$$$$
>  <Compound>
COc1ccc(-c2ccc3ncc4c(c3c2)n(-c2ccc(N3CCNCC3)c(C(F)(F)F)c2)c(=O)n4C)cn1.O=C(O)/C=C\C(=O)O [BGT-226]

>  <Measured Parameter>
Growth Rate

>  <Result Number>
0

$$$$
>  <Compound>
CNC(=O)Nc1ccc2c(c1)[C@@]1(CC2)OC(=O)N(CC(=O)N(Cc2ccc(F)cc2)[C@@H](C)C(F)(F)F)C1=O [A-486]

>  <Measured Parameter>
Growth Rate

>  <Result Number>
0

$$$$

====

# Tested on: HEK-293T
# Assay Details: Multiplex assay against HEK293T
# Assay type: toxicity, cell-based
# Conditions Used: human, 24 h, 10 µM, compound concentration 10 uM, replicate 2
Entries and their Population Healthy Nuclei (%)
Measured Parameter: Population Healthy Nuclei (%)

>  <Compound>
O=c1cc(N2CCOCC2)oc2c(-c3cccc4c3sc3ccccc34)cccc12

>  <Measured Parameter>
Population Healthy Nuclei (%)

>  <Result Number>
22

$$$$
>  <Compound>
CCc1ccc(OCc2ccccc2C(=O)Nc2ccc3nc(C)cc(N)c3c2)cc1.Cl

>  <Measured Parameter>
Population Healthy Nuclei (%)

>  <Result Number>
21

$$$$
>  <Compound>
CC(C)NC(=O)N1CC[C@H](NC2=Nc3cc(F)ccc3N(CC(F)F)c3ccc(Cl)cc32)C1

>  <Measured Parameter>
Population Healthy Nuclei (%)

>  <Result Number>
58

$$$$
>  <Compound>
C=CC(=O)Nc1cccc(Oc2nc(Nc3ccc(N4CCN(C)CC4)cc3OC)ncc2Cl)c1

>  <Measured Parameter>
Population Healthy Nuclei (%)

>  <Result Number>
78

$$$$
>  <Compound>
CNC(=O)Nc1ccc2c(c1)[C@@]1(CC2)OC(=O)N(CC(=O)N(Cc2ccc(F)cc2)[C@@H](C)C(F)(F)F)C1=O

>  <Measured Parameter>
Population Healthy Nuclei (%)

>  <Result Number>
72

$$$$
>  <Compound>
CCc1nn(CCCN2CCN(c3cccc(Cl)c3)CC2)c(=O)n1CCOc1ccccc1.Cl [NEFAZODONE HYDROCHLORIDE]

>  <Measured Parameter>
Population Healthy Nuclei (%)

>  <Result Number>
19

$$$$
>  <Compound>
CC(C)c1noc(N2CCC(COc3ccc(-c4ccc(S(C)(=O)=O)cc4)nc3)CC2)n1

>  <Measured Parameter>
Population Healthy Nuclei (%)

>  <Result Number>
38

$$$$
>  <Compound>
O=c1[nH]c2ccccc2n1C1CCN(Cc2ccc(-c3[nH]c4cc5ncnc5cc4nc3-c3ccccc3)cc2)CC1

>  <Measured Parameter>
Population Healthy Nuclei (%)

>  <Result Number>
71

$$$$
>  <Compound>
CN(c1ccccc1CNc1nc(Nc2ccc3c(c2)CC(=O)N3)ncc1C(F)(F)F)S(C)(=O)=O

>  <Measured Parameter>
Population Healthy Nuclei (%)

>  <Result Number>
83

$$$$
>  <Compound>
Cc1ccccc1C(c1ccccc1C)N1C2CCC1CC(O)(c1ccccc1)C2 (configuration not stated)

>  <Measured Parameter>
Population Healthy Nuclei (%)

>  <Result Number>
43

$$$$
>  <Compound>
CCCSc1nc(N[C@@H]2C[C@H]2c2ccc(F)c(F)c2)c2nnn([C@@H]3C[C@H](OCCO)[C@@H](O)[C@H]3O)c2n1

>  <Measured Parameter>
Population Healthy Nuclei (%)

>  <Result Number>
26

$$$$
>  <Compound>
CNC(=O)Nc1ccc(-c2nc(N3CC4CCC(C3)O4)c3cnn(C4CCC5(CC4)OCCO5)c3n2)cc1

>  <Measured Parameter>
Population Healthy Nuclei (%)

>  <Result Number>
17

$$$$
>  <Compound>
Cc1nc(N2CC[C@H](O)C2)ncc1-c1cc(C(F)(F)F)cc2[nH]ncc12

>  <Measured Parameter>
Population Healthy Nuclei (%)

>  <Result Number>
75

$$$$
>  <Compound>
CC1=C(C(=O)Nc2cc3cn[nH]c3cc2F)C(c2ccc(C(F)(F)F)cc2)CC(=O)N1 (configuration not stated)

>  <Measured Parameter>
Population Healthy Nuclei (%)

>  <Result Number>
61

$$$$
>  <Compound>
COc1cc(Nc2nccc(-c3cnn4nc(OC)ccc34)n2)cc(C(F)(F)F)c1

>  <Measured Parameter>
Population Healthy Nuclei (%)

>  <Result Number>
55

$$$$
>  <Compound>
COc1cc2ncn(-c3cc(OCc4ccccc4C(F)(F)F)c(C(N)=O)s3)c2cc1OC [GW843682X]

>  <Measured Parameter>
Population Healthy Nuclei (%)

>  <Result Number>
53

$$$$
>  <Compound>
C=CC(=O)Nc1cccc(Sc2nc(Nc3ccc(N4CCN(C)CC4)cc3)ncc2Cl)c1

>  <Measured Parameter>
Population Healthy Nuclei (%)

>  <Result Number>
76

$$$$
>  <Compound>
CC(C)CC(=O)Nc1[nH]nc2c1CN(C(=O)C1CCN(C)CC1)C2(C)C

>  <Measured Parameter>
Population Healthy Nuclei (%)

>  <Result Number>
86

$$$$
>  <Compound>
Cc1cccc(CN2CCN(C(c3ccccc3)c3ccc(Cl)cc3)CC2)c1.Cl.Cl (configuration not stated)

>  <Measured Parameter>
Population Healthy Nuclei (%)

>  <Result Number>
56

$$$$
>  <Compound>
COC(=O)C1=C(C)NC(C)=C(C(=O)OCCCN2CCC(c3ccccc3)(c3ccccc3)CC2)[C@H]1c1cccc([N+](=O)[O-])c1

>  <Measured Parameter>
Population Healthy Nuclei (%)

>  <Result Number>
1

$$$$
>  <Compound>
Cl.O=C(O)c1cc(-c2ccc(C3CCNCC3)cc2)c2ccc(-c3ccc(C(F)(F)F)cc3)cc2c1

>  <Measured Parameter>
Population Healthy Nuclei (%)

>  <Result Number>
16

$$$$
>  <Compound>
O=C(c1cc2c(cc1F)OC(c1ccc(F)cc1)(c1ccc(Cl)cc1Cl)O2)N1CCOCC1 (configuration not stated)

>  <Measured Parameter>
Population Healthy Nuclei (%)

>  <Result Number>
13

$$$$
>  <Compound>
CC(C)Oc1ccccc1C(=O)Nc1ccccc1C(=O)Nc1cccc(S(=O)(=O)C(F)(F)F)c1

>  <Measured Parameter>
Population Healthy Nuclei (%)

>  <Result Number>
25

$$$$
>  <Compound>
COc1ccc(-c2ccc3ncc4c(c3c2)n(-c2ccc(N3CCNCC3)c(C(F)(F)F)c2)c(=O)n4C)cn1.O=C(O)/C=C\C(=O)O

>  <Measured Parameter>
Population Healthy Nuclei (%)

>  <Result Number>
15

$$$$
>  <Compound>
Cc1c[nH]c2nccc(Oc3c(F)cc(Nc4cc(Cl)nc(N)n4)cc3F)c12

>  <Measured Parameter>
Population Healthy Nuclei (%)

>  <Result Number>
49

$$$$
>  <Compound>
CC(C)(C)NC[C@H](O)COc1nsnc1N1CCOCC1

>  <Measured Parameter>
Population Healthy Nuclei (%)

>  <Result Number>
71

$$$$
>  <Compound>
C[C@]12CC[C@@H]3c4ccc(O)cc4CC[C@H]3[C@@H]1CC[C@@H]2O

>  <Measured Parameter>
Population Healthy Nuclei (%)

>  <Result Number>
47

$$$$
>  <Compound>
Cc1ccc(C)c(Oc2ccncc2C(=O)N2CCN(C3CC3)c3ccccc32)c1

>  <Measured Parameter>
Population Healthy Nuclei (%)

>  <Result Number>
24

$$$$
>  <Compound>
CC(C)OC(=O)N1CCC(Oc2ncnc3c2cnn3-c2ccc(S(C)(=O)=O)cc2F)CC1

>  <Measured Parameter>
Population Healthy Nuclei (%)

>  <Result Number>
65

$$$$
>  <Compound>
CN1CCN(Cc2ccc(Nc3ncc(Cl)c(Nc4ccccc4S(=O)(=O)N(C)C)n3)cc2)CC1

>  <Measured Parameter>
Population Healthy Nuclei (%)

>  <Result Number>
42

$$$$
>  <Compound>
C=CC(=O)Nc1ccc2[nH]c(=O)n(C3CCN(Cc4ccc(-c5nc6cc[nH]c(=O)c6cc5-c5ccccc5)cc4)CC3)c2c1

>  <Measured Parameter>
Population Healthy Nuclei (%)

>  <Result Number>
83

$$$$
>  <Compound>
COc1ccccc1CN[C@H]1C2CCN(CC2)[C@H]1C(c1ccccc1)c1ccccc1

>  <Measured Parameter>
Population Healthy Nuclei (%)

>  <Result Number>
44

$$$$
